# tgt: c-Myc protein (Homo sapiens)
# Construct: endogenous in cells; host or cells: HL60 cells
# method.notes: Ability of compounds to degrade c-Myc protein in HL60 cells (ELISA)
# Type: cell-based
# applied.conditions: HL-60, 1 μM compound, 24 h, read-out: HL60 cells Protein degradation rate (1 μM)
Assign inhibition at 1 µM to each entry below.

Query: Write inhibition at 1 µM of O=C(Cc1nccc2ccccc12)NCc1ccc(CC(=O)Nc2ccc3c(c2)CN(C2CCC(=O)NC2=O)C3=O)cc1 (stereo not drawn) ; system used: c-Myc protein (Homo sapiens)
Reply: 60 to 90%

Query: Write inhibition at 1 µM of O=C(Cc1cccc2ccccc12)NCc1ccc(CNC(=O)c2ccc3c(c2)C(=O)N(C2CCC(=O)NC2=O)C3=O)cn1 (stereo not drawn) ; system used: c-Myc protein (Homo sapiens)
Reply: 10 to 30%

Query: Write inhibition at 1 µM of CN(CCc1ccc(Cl)cc1Cl)Cc1ccc(CC(=O)Nc2ccc3c(c2)C(=O)N(C2CCC(=O)NC2=O)C3=O)cc1 (stereo not drawn) ; system used: c-Myc protein (Homo sapiens)
Reply: 60 to 90%

Query: Write inhibition at 1 µM of O=C(Cn1c2ccccc2c2cccnc21)NCc1ccc(CNC(=O)c2ccc3c(c2)C(=O)N(C2CCC(=O)NC2=O)C3=O)c(F)c1 (stereo not drawn) ; system used: c-Myc protein (Homo sapiens)
Reply: 60 to 90%

Query: Write inhibition at 1 µM of O=C(Cc1cccc2cccnc12)NCc1ccc(CC(=O)Nc2ccc3c(c2)CN(C2CCC(=O)NC2=O)C3=O)cc1 (stereo not drawn) ; system used: c-Myc protein (Homo sapiens)
Reply: 60 to 90%

Query: Write inhibition at 1 µM of O=C(Cc1ccccc1C(F)(F)F)NCc1ccc(CNC(=O)c2ccc3c(c2)C(=O)N(C2CCC(=O)NC2=O)C3=O)cc1 (stereo not drawn) ; system used: c-Myc protein (Homo sapiens)
Reply: 60 to 90%

Query: Write inhibition at 1 µM of O=C1CCC(N2C(=O)c3ccc(C(=O)NCc4ccc(CN(CCc5cccc6ccccc56)c5ccccc5)cc4)cc3C2=O)C(=O)N1 (stereo not drawn) ; system used: c-Myc protein (Homo sapiens)
Reply: 60 to 90%

Query: Write inhibition at 1 µM of COCCN(CCc1cccc2ccccc12)Cc1ccc(CNC(=O)c2ccc3c(c2)C(=O)N(C2CCC(=O)NC2=O)C3=O)cc1 (stereo not drawn) ; system used: c-Myc protein (Homo sapiens)
Reply: 60 to 90%

Query: Write inhibition at 1 µM of CN(CCn1c2ccccc2c2cccnc21)Cc1ccc(CNC(=O)c2ccc3c(c2)C(=O)N(C2CCC(=O)NC2=O)C3=O)c(C(F)(F)F)c1 (stereo not drawn) ; system used: c-Myc protein (Homo sapiens)
Reply: 60 to 90%

###

Assign inhibition at 1 µM to each entry below.
# tgt: c-Myc protein (Homo sapiens, UniProt P01106)
# Construct: endogenous in cells; host or cells: HL60 cells
# Sequence (P01106 whole entry): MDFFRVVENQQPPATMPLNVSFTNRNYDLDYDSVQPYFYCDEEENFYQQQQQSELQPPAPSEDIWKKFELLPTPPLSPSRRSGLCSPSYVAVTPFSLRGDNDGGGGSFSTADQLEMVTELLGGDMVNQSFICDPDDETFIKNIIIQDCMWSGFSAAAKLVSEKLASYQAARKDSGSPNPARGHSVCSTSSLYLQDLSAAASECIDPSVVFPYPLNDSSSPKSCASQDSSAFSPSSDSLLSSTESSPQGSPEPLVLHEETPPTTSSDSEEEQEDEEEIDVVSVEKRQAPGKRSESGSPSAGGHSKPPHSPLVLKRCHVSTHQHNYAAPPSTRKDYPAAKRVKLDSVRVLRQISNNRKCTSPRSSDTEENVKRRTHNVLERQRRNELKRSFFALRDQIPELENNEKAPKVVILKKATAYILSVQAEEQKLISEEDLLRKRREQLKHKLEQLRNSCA
# method.notes: Ability of compounds to degrade c-Myc protein in HL60 cells (ELISA)
# Assay type: cell-based
# applied.conditions: HL-60, 1 μM compound, 24 h, read-out: HL60 cells Protein degradation rate (1 μM)

Query: Input CN(CCc1cccc2ccccc12)Cc1ccc(CC(=O)Nc2ccc3c(c2)CN(C2CCC(=O)NC2=O)C3=O)cc1 (centres unmarked) , output reported inhibition at 1 µM.
Reply: 60 to 90%

Query: Input O=C(Cn1c2ccccc2c2cccnc21)NCc1ncc(CNC(=O)c2ccc3c(c2)C(=O)N(C2CCC(=O)NC2=O)C3=O)cn1 (centres unmarked) , output reported inhibition at 1 µM.
Reply: 10 to 30%

Query: Input O=C(Cc1cccc2cccnc12)NCc1ccc(CNC(=O)c2ccc3c(c2)C(=O)N(C2CCC(=O)NC2=O)C3=O)cc1 (centres unmarked) , output reported inhibition at 1 µM.
Reply: 60 to 90%

Query: Input O=C(Cn1c2ccccc2c2cccnc21)NCc1ccc(CNC(=O)c2ccc3c(c2)CN(C2CCC(=O)N(COP(=O)(O)O)C2=O)C3=O)cc1 (centres unmarked) , output reported inhibition at 1 µM.
Reply: 60 to 90%

Query: Input O=C(Cn1c2ccccc2c2cccnc21)NCc1ccc(CNCc2ccc3c(c2)C(=O)N(C2CCC(=O)NC2=O)C3=O)cc1 (centres unmarked) , output reported inhibition at 1 µM.
Reply: 60 to 90%

Query: Input O=C(Cn1c2ccccc2c2ccncc21)NC[C@H]1CC[C@H](CNC(=O)c2ccc3c(c2)C(=O)N(C2CCC(=O)NC2=O)C3=O)CC1 (some centres unmarked) , output reported inhibition at 1 µM.
Reply: 30 to 60%

Query: Input O=C1CCC(N2C(=O)c3ccc(C(=O)NCc4ccc(CN(CCn5c6ccccc6c6cccnc65)c5ccccc5)cc4)cc3C2=O)C(=O)N1 (centres unmarked) , output reported inhibition at 1 µM.
Reply: 60 to 90%

Query: Input COCCN(CCn1c2ccccc2c2cccnc21)Cc1ccc(CNC(=O)c2ccc3c(c2)C(=O)N(C2CCC(=O)NC2=O)C3=O)cc1 (centres unmarked) , output reported inhibition at 1 µM.
Reply: 60 to 90%

Query: Input O=C(Cc1cccc2ccccc12)NCc1ccc(CNC(=O)c2ccc3c(c2)C(=O)N(C2CCC(=O)NC2=O)C3=O)cc1 (centres unmarked) , output reported inhibition at 1 µM.
Reply: 60 to 90%

Query: Input CN(CCn1c2ccccc2c2cccnc21)C1(c2ccc(CNC(=O)c3ccc4c(c3)C(=O)N(C3CCC(=O)NC3=O)C4=O)cc2)CC1 (centres unmarked) , output reported inhibition at 1 µM.
Reply: 60 to 90%

Query: Input O=C(CN1c2ccccc2Oc2ccccc21)NCCCCCCNC(=O)c1ccc2c(c1)C(=O)N(C1CCC(=O)NC1=O)C2=O (centres unmarked) , output reported inhibition at 1 µM.
Reply: 30 to 60%

Query: Input CN(CCn1c2ccccc2c2cccnc21)Cc1ccc(CNC(=O)c2ccc3c(c2)C(=O)N(C2CCC(=O)NC2=O)C3=O)nc1 (centres unmarked) , output reported inhibition at 1 µM.
Reply: 60 to 90%

Query: Input O=C(Cc1cccc2ccccc12)NCCc1ccc(CNC(=O)c2ccc3c(c2)C(=O)N(C2CCC(=O)NC2=O)C3=O)cc1 (centres unmarked) , output reported inhibition at 1 µM.
Reply: 60 to 90%

Query: Input CN(CCc1ccc(Cl)c(Cl)c1)Cc1ccc(CNCc2ccc3c(c2)C(=O)N(C2CCC(=O)NC2=O)C3=O)cc1 (centres unmarked) , output reported inhibition at 1 µM.
Reply: 60 to 90%
